From various publications: log10 Ki for Amine oxidase [flavin-containing] B (Homo sapiens).
Values are log10 of Ki in nM.

Known results for molecules:
Clc1ccc(C2CC(c3c4ccccc4cc4ccccc34)=NN2)cc1 (stereo unspecified); 0.26
COc1ccc(C2CC(c3ccccc3)=NN2C(N)=O)cc1 (stereo unspecified); 3.27

Request the reported log10 Ki associated with Cc1ccc([C@H]2CC(c3cc(Cl)ccc3O)=NN2C(=O)c2snnc2C)cc1 4.86

Request the reported log10 Ki associated with C=CCNC(=S)N1N=C(c2ccc(C)cc2)CC1c1ccc(F)cc1 (stereo unspecified) 2.30

---

From various publications: pKi for Amine oxidase [flavin-containing] B (Homo sapiens, UniProt P27338).
Molecular target: Amine oxidase [flavin-containing] B (Homo sapiens, UniProt P27338)
Sequence (P27338 whole entry): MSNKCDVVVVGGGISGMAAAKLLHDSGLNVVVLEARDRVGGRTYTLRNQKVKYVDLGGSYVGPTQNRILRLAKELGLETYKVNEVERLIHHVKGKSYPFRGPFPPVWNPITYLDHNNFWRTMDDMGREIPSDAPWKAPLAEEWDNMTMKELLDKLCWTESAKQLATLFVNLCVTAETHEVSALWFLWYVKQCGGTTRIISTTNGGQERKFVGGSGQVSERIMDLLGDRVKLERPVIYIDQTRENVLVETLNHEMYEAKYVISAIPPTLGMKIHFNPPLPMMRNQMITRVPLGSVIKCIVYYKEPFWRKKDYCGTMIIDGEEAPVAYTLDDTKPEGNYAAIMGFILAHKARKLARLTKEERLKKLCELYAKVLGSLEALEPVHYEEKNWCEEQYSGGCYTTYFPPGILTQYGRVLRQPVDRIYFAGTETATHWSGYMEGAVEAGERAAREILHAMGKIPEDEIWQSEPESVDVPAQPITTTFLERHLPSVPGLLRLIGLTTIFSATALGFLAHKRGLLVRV
Formally, pKi is defined as -log10 of the concentration c, with c in mol/L.

COc1cccc(NC(=S)N2N=C(c3ccccc3)CC2c2ccc(O)cc2)c1 (configuration not stated); 3.45

Request the reported pKi associated with CCNC(=S)N1N=C(c2ccccc2)CC1c1ccc(F)cc1 (configuration not stated) 6.70

Request the reported pKi associated with COc1cccc(NC(=S)N2N=C(c3ccccc3)CC2c2ccccc2O)c1 (configuration not stated) 3.01

Request the reported pKi associated with COc1cc(C2=NNC(c3ccc(Cl)cc3)C2)ccc1O (configuration not stated) 3.85

Request the reported pKi associated with CNC(=S)N1N=C(c2ccc(C)cc2)CC1c1ccc(F)cc1 (configuration not stated) 6.70

Request the reported pKi associated with C=CCNC(=S)N1N=C(c2ccccc2)CC1c1ccc(F)cc1 (configuration not stated) 6.70

---

Target: Amine oxidase [flavin-containing] B (Homo sapiens, UniProt P27338)
Sequence (P27338 whole entry): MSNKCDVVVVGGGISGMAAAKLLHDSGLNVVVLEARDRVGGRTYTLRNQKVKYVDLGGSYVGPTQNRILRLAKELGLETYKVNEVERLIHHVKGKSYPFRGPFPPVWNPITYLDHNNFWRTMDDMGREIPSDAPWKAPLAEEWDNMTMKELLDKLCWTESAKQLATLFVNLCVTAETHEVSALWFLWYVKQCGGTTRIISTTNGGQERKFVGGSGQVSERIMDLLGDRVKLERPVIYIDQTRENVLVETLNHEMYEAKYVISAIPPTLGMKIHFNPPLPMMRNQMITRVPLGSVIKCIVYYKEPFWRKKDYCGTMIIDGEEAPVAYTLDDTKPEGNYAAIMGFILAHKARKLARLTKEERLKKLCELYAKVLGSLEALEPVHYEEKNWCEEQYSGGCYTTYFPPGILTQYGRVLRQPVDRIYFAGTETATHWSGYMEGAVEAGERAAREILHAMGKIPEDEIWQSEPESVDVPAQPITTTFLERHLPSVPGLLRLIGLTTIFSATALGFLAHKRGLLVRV
From various publications: pKi for Amine oxidase [flavin-containing] B (Homo sapiens, UniProt P27338).
Formally, pKi is defined as -log10 of the concentration c, with c in mol/L.

O=[N+]([O-])c1ccc(C2CC(c3c4ccccc4cc4ccccc34)=NN2)cc1 (stereo unspecified); 8.94

# returns recorded pKi (system: Amine oxidase [flavin-containing] B (Homo sapiens, UniProt P27338)) for CSc1ccc(C(=O)/C=C/c2cccc3c2OCO3)cc1 6.26

# returns recorded pKi (system: Amine oxidase [flavin-containing] B (Homo sapiens, UniProt P27338)) for CNC(=S)N1N=C(c2ccc(Cl)cc2)CC1c1ccc(F)cc1 (stereo unspecified) 6.70

---

From various publications: log10 Ki for Amine oxidase [flavin-containing] B (Homo sapiens).
Values are log10 of Ki in µM.

Known results for molecules:
Cc1ccc(/C=C/C(=N\NC(=O)c2cccs2)c2ccc(Cl)cc2)cc1; -0.28
NC(=O)N1N=C(c2ccccc2)CC1c1ccncc1 (stereo not drawn); 0.68
Oc1ccccc1C1CC(c2c3ccccc3cc3ccccc23)=NN1 (stereo not drawn); -2.13
Cc1ccc([C@H]2CC(c3cc(Br)ccc3O)=NN2C(=O)c2ccco2)cc1; 1.15
Cc1ccc(NC(=S)N2N=C(c3ccccc3)CC2c2ccc(O)cc2)cc1 (stereo not drawn); 2.48

Request the reported log10 Ki associated with COc1ccc(NC(=S)N2N=C(c3ccccc3)CC2c2ccccc2O)cc1 (stereo not drawn) 1.78

Request the reported log10 Ki associated with c1ccc(C2CC(c3c4ccccc4cc4ccccc34)=NN2)cc1 (stereo not drawn) -2.38

---

From various publications: pKi for Amine oxidase [flavin-containing] B (Homo sapiens, UniProt P27338).
pKi: −log10 of the molar value.
Classification scheme (pKi): low bin = under 6, mid bin = from 6 up to 7, high bin = 7 and over

Solved entries (count: 3):
NC1CC1c1ccc(NC(=O)C(Cc2ccccc2)NC(=O)OCc2ccccc2)cc1 (stereo unspecified); low bin
O=C(CN[C@H]1C[C@@H]1c1cc(F)cc(F)c1OCc1cccnc1F)N1CCC2(CCNC2)CC1; low bin
O=C(CN[C@@H]1C[C@H]1c1cc(F)cc(F)c1OCc1cccnc1F)N1CCC2(CCNC2)CC1; low bin

Pick a category. Item: Oc1cc(OCc2ccc(F)cc2)ccc1CNc1ccccc1 high bin

Pick a category. Item: Cc1cccc(NC(=S)N2N=C(c3ccccc3)CC2c2ccc(O)cc2)c1 (stereo unspecified) low bin

Pick a category. Item: Cc1ccccc1NC(=S)N1N=C(c2ccccc2)CC1c1ccc(O)cc1 (stereo unspecified) low bin

Pick a category. Item: C=CCNC(=S)N1N=C(c2ccc(OC)cc2)CC1c1ccc(F)cc1 (stereo unspecified) mid bin

Pick a category. Item: N#C/C(=C\C=C\c1ccc2c(c1)OCO2)C(=O)OCc1ccccc1 high bin

Pick a category. Item: COc1ccc(/C=C/C(=O)c2ccc(Br)cc2)cc1 low bin

Pick a category. Item: Cc1ccc(/C=C/C(=O)c2cc(Br)ccc2O)cc1 low bin

Pick a category. Item: CNC(=S)N1N=C(c2ccccc2)CC1c1ccc(F)cc1 (stereo unspecified) mid bin

Pick a category. Item: NC(=O)N1N=C(c2ccccc2)CC1c1ccc(Cl)cc1 (stereo unspecified) low bin

Pick a category. Item: NC1CC1c1cccc(OCC[C@H](NC(=O)c2ccccc2)C(=O)NCc2ccccc2)c1 (stereo partly specified) low bin

Pick a category. Item: Fc1ccc(C2CC(c3ccc(Cl)cc3)=NN2C(=S)Nc2ccccc2)cc1 (stereo unspecified) mid bin

Pick a category. Item: COCC1CN(c2noc3cc(OCCCC(F)(F)F)ccc23)[11C](=O)O1 (stereo unspecified) high bin

Pick a category. Item: O=C(/C=C/c1cccc2c1OCO2)c1cccc(OC(F)(F)F)c1 low bin

Pick a category. Item: C#CCN(C)[C@@H]1CCc2ccccc21 mid bin

Pick a category. Item: CC(=O)N1N=C(c2ccc(O)cc2O)CC1c1ccccc1C (stereo unspecified) high bin

Pick a category. Item: Cc1ccc(C2CC(c3ccccc3)=NN2C(N)=O)cc1 (stereo unspecified) low bin

---

From various publications: log10 of Ki for Amine oxidase [flavin-containing] B (Homo sapiens, UniProt P27338).
Values are log10 of Ki in nM.

Known results for compounds:
COc1ccc(/C=C/C(=N\NC(=O)c2ccc(OC)cc2)c2ccc(Br)cc2)cc1; 2.99
COc1cc(S)c(/N=N/c2ccc(C#N)c(C#N)c2)cc1OC; 1.89
COc1cccc(/C=C/C(=O)c2ccc(S(C)(=O)=O)cc2)c1OC; 3.06

Request the reported log10 of Ki associated with COc1ccc(/C=C/C(=N\NC(=O)c2ccco2)c2ccc(Br)cc2)cc1 2.85

Request the reported log10 of Ki associated with COc1ccc(/C=C/C(=O)NCCc2ccccc2)cc1O 2.04

Request the reported log10 of Ki associated with Cc1cccc(/C=C/C(=N/NC(=O)c2snnc2C)c2ccc(Cl)cc2)c1 3.00

Request the reported log10 of Ki associated with Cc1ccc([C@H]2CC(c3cc(Cl)ccc3O)=NN2C(=O)c2ccco2)cc1 3.00
